Reference for the values: PubChem BioAssay AID1159580

// normalized growth lookup, one value per entry
# TEST METHOD NOTES: chemical genetic growth profiling, strain panel (AID 1159580);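 also: tested at 20 µM; growth read once vehicle control cultures reached saturation at 30 °C; 1 = growth at the plate median or of vehicle wells; lower values mean less growth of the strain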
# MEASUREMENT SETUP: S. cerevisiae deletion strains, growth OD, locus YDL214C, strain PRR2, active compounds read low
Hit rate of the full screen: of about 5,500 compounds, about 2,000 (36%) were called active. About 18% were inconclusive and are not listed. The list shows a part of the results.
Hey, just send me the number, nothing else.

Reference set (5 entries):
>>> meas_value("CC1CCc2c(sc3ncnc(Sc4ccccc4)c23)C1 (configuration not stated)")
0.945
>>> meas_value("O=C(O)c1cccc2cccc(C(=O)O)c12")
0.0872
>>> meas_value("Cc1oc(-c2ccc(Cl)cc2)cc1C(=O)N1CCN(c2ccc(C(F)(F)F)cn2)CC1")
0.908
>>> meas_value("O=C(NCc1ccc(F)c(Cl)c1)Nc1csc([N+](=O)[O-])c1")
0.975
>>> meas_value("C(=NC(N=Cc1ccccc1)c1ccccc1)c1ccccc1 (configuration not stated)")
0.956

-- ask I'd like to know its normalized growth. The compound in question is Cc1c(C(=O)NCCNc2ccc(C(F)(F)F)cc2[N+](=O)[O-])cnn1-c1ccc(F)cc1
-- reply 0.958

-- ask Proceed to O=C(c1ccc(Cl)cc1)N1CCN(c2ccc(C(F)(F)F)cn2)CC1
-- reply 0.937
